Test system: U87-MG
PROCEDURE TEXT: Cell viability assay (Hoechst 33342/PI, ImageXpress)
Assay type: cell-based
COND: U-87 MG, human glioblastoma astrocytoma, Table 2
Please provide measured pIC50 for the entries that follow.
Convention used: pIC50 is expressed as -log10 of the molar concentration.

What the record says about CC(C)CCC[C@@H](C)[C@H]1CC[C@H]2[C@@H]3C(=O)C=C4C[C@@H](O)CC[C@]4(C)[C@H]3CC[C@]12C : pIC50 is 4.25

Kindly note the recorded pIC50 for CC(C)CCCC(C)C1CCC2C3CC(O)C4(O)CC(O)CC[C@]4(C)C3CC[C@]12C (stereo in doubt) , which is 4.53
